B1: Histone-lysine N-methyltransferase SETD2, residues 2382 to 2430; numbered along this chain, Q9BYW2 (parent)
chain: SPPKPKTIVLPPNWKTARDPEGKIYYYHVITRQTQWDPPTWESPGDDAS

Variants of: B1
experiment-summary: abundance fitness (aPCA) (normalised: wild type 0, dead -1); higher = more abundant; growth selection in yeast, the domain comes from the species named
measurement-conditions: Homo sapiens
measurement-name: abundance fitness
Format: numeric value only, no unit, no commentary.

SPPKPKTIVLPPNPKTARDPEGKIYYYHVITRQTQWDPPTWESPGDDAS; -1.03
SPPKPKTIVLPPNWKTARDPETKIYYYHVITRQTQWDPPTWESPGDDAS; -1.02
SPPKPKTIVNPPNWKTARDPEGKIYYYHVITRQTQWDPPTWESPGDDAS; -0.46

Quote abundance fitness reported for SPPKPKTIVLPPNWKTARDPEGKIYYYHVQTRQTQWDPPTWESPGDDAS please.
-0.268

Recall and state the measured abundance fitness for SPPKPKTIVLPPNWKTARDPEGKIYYYHVITRQTQWDPPTWESPGDQAS .
0.257

Note down abundance fitness recorded for SPPKPKTIALPPNWKTARDPEGKIYYYHVITRQTQWDPPTWESPGDDAS
-0.187

Query abundance fitness for SPPKPKTIVLPPNWKTARMPEGKIYYYHVITRQTQWDPPTWESPGDDAS
-0.172

Answer with the recorded abundance fitness for the variant listed here: SPPKPKTIVLPPNWKTARDPEGKIYYYHVITRQTQWDPPTAESPGDDAS
0.07
